System: PfAP2-I AP2 domain 3 (GST-tagged)
Assay: gcPBM binding intensity (ln(normalized median fluorescence intensity)); higher = stronger DNA binding
Whole data set: some 25,000 sequences, median “ln(normalized median fluorescence intensity)” near 7.9, cut for the highest 2% near 11. Shown is part of a subset that was picked to be rich in the highest values.
measured.quantity: gcPBM binding intensity (ln)

# annotated cases, reported gcPBM binding intensity (ln) shown
{"seq.text": "ATAATAAAAAAAAATGCACACATATATATATATATA [CACACA_site8766]", "target.or.test.system": "PfAP2-I AP2 domain 3 (GST-tagged)", "measured.quantity": "gcPBM binding intensity (ln)", "measured": 9.59}
{"seq.text": "TAAACATAAATATGCACACATATACATATATTCATA [CACACA_site2667]", "target.or.test.system": "PfAP2-I AP2 domain 3 (GST-tagged)", "measured.quantity": "gcPBM binding intensity (ln)", "measured": 8.69}
{"seq.text": "TTTTGAATTAAACAAGCATGCTTTATTTACTTCTTA [TGCATGCA_site289]", "target.or.test.system": "PfAP2-I AP2 domain 3 (GST-tagged)", "measured.quantity": "gcPBM binding intensity (ln)", "measured": 7.59}
{"seq.text": "AAAAAAAAAAATATAACACACAAAAAATTGTATCGA [CACACA_site1144]", "target.or.test.system": "PfAP2-I AP2 domain 3 (GST-tagged)", "measured.quantity": "gcPBM binding intensity (ln)", "measured": 7.53}
{"seq.text": "TTCTTATTTAATGTATCACACACGAGAATAAAAAAT [CACACA_site8992]", "target.or.test.system": "PfAP2-I AP2 domain 3 (GST-tagged)", "measured.quantity": "gcPBM binding intensity (ln)", "measured": 7.98}
{"seq.text": "TTTTTTGCTAAGTGTACACAAATGTTTATTAATTTA [CACACA_site5859]", "target.or.test.system": "PfAP2-I AP2 domain 3 (GST-tagged)", "measured.quantity": "gcPBM binding intensity (ln)", "measured": 8.42}

*Q* Observed gcPBM binding intensity (ln) on PfAP2-I AP2 domain 3 (GST-tagged) for ATTTAATGTATTTTGCGTACGAATTATTTTATTTCA [XGTACX_site7331] , please.
*A* 7.93

*Q* Another sequence to look at: AATAAAAAAAAATGCACACATATATATATATATATA [CACACA_site2421]
*A* 9.67

*Q* How about this sequence: TATGATGATGAATAACGTACAAAAAAATTAATCACC [XGTACX_site6794]
*A* 8.16

* * *

System: PfAP2-I AP2 domain 3 (GST-tagged)
Assay: gcPBM binding intensity (ln(normalized median fluorescence intensity)); higher = stronger DNA binding
Whole data set: some 25,000 sequences, median “ln(normalized median fluorescence intensity)” near 7.9, cut for the highest 2% near 11. For the sample, the highest values were picked, then their nearest neighbours and some sequences at random.
Label Satisfied when gcPBM binding intensity (ln) is at or above 8; anything below gets Not satisfied.

Before answering, review these 3 worked examples.
{"seq.text": "TATTTTTTTTTATTTTTTTTTATTTTGTTTTTTTAT [TGCATGCA_negctrl_site315]", "target.or.test.system": "PfAP2-I AP2 domain 3 (GST-tagged)", "assigned.label": "Not satisfied"}
{"seq.text": "ATAAATTATATTCAAGTGCATGTAACTTATTATTAT", "target.or.test.system": "PfAP2-I AP2 domain 3 (GST-tagged)", "assigned.label": "Satisfied"}
{"seq.text": "TTCAAAATAAAAAATTCACACACATATATATATATA [CACACA_site8653]", "target.or.test.system": "PfAP2-I AP2 domain 3 (GST-tagged)", "assigned.label": "Satisfied"}

*Q* Quick check: does AATATATGTTTAATTTCACACACAAATATACATTTT [CACACA_site9385] have gcPBM binding intensity (ln) greater than or equal to 8?
*A* Not satisfied

*Q* Now the sequence AATTTAATATAATGCACACATAAAAAAAAATTCAAA [CACACA_site2062]
*A* Satisfied

*Q* // same read-out, input: CATATATATCGTAATGCACACATGTAATTTCATAAT [CACACA_site811]
*A* Satisfied

*Q* Try the sequence TAAGTATATATATTTACACACATTTGTTTTTTTTTA [CACACA_site3784]
*A* Not satisfied

*Q* Try this sequence next: TATCAAAGTAGAAGAGATCGATGTCATATTGTGATG [GTGCAC_negctrl_site42]
*A* Not satisfied

* * *

System: PfAP2-I AP2 domain 3 (GST-tagged)
Assay: gcPBM binding intensity (ln(normalized median fluorescence intensity)); higher = stronger DNA binding
In all, about 25,000 sequences were measured (“ln(normalized median fluorescence intensity)”: median about 7.9, highest 2% from about 11 on). The entries come from a sample that favours the highest values as a whole.
Measured gcPBM binding intensity (ln), listed per entry for reference.
Give a plain numeric answer without units written out.

Examples with their reported gcPBM binding intensity (ln) follow.
{"seq.text": "GAAATTTGTTATTGCACACAAATTTTTCTTTTTTTA [CACACA_site2339]", "measured.quantity": "gcPBM binding intensity (ln)", "measured": 10.1}
{"seq.text": "TTTTTAACGTATAAGGTGCACTGTATATGGTACTCA", "measured.quantity": "gcPBM binding intensity (ln)", "measured": 11}
{"seq.text": "TATCCATTTCTTTATGTGCACATTAAATATATTTGT", "measured.quantity": "gcPBM binding intensity (ln)", "measured": 10.2}
{"seq.text": "ATATTATTATATATAGTGCATATTATTATTTTTATT", "measured.quantity": "gcPBM binding intensity (ln)", "measured": 10.2}
{"seq.text": "GTGGTATAAATTTTATGTACTTAATAACTCATTAAT [XGTACX_site5555]", "measured.quantity": "gcPBM binding intensity (ln)", "measured": 7.79}

*Q* Return reported gcPBM binding intensity (ln); argument: TATATACATATATGCACACAAAAAAATATATATTTT [CACACA_site1729]
*A* 8.99

* * *

Test system: PfAP2-I AP2 domain 3 (GST-tagged)
Assay: gcPBM binding intensity (ln(normalized median fluorescence intensity)); higher = stronger DNA binding
Whole data set: some 25,000 sequences, median “ln(normalized median fluorescence intensity)” near 7.9, cut for the highest 2% near 11. Shown is part of a subset that was picked to be rich in the highest values.
gcPBM binding intensity (ln) values, listed per item

{"seq.text": "AACTTTTTTATATGCACACATAAACAAGGATATATA [CACACA_site2874]", "gcPBM binding intensity (ln)": 10.1}
{"seq.text": "AAGGAAAATTTTTGGTGTACACAAAAAAATCCAAAA [XGTACX_site3596]", "gcPBM binding intensity (ln)": 8.46}
{"seq.text": "ATAAAAAAAAATATTTGTACACATATTTATATATTA [XGTACX_site8147]", "gcPBM binding intensity (ln)": 7.63}
{"seq.text": "ACAAAGTAAAATAATGCATGTAGGTATACATAATTA [TGCATGCA_site607]", "gcPBM binding intensity (ln)": 7.71}
{"seq.text": "TTTATATTATTATATCTTATTAATTATTTATCATTT [TGCATGCA_negctrl_site73]", "gcPBM binding intensity (ln)": 7.28}

*Q* // lookup gcPBM binding intensity (ln) | system=PfAP2-I AP2 domain 3 (GST-tagged) | key= TTTATTTTCATATGAACACACATATAAATATTATAA [CACACA_site7172]
*A* 7.87

*Q* Can you handle ACATAATATACTATTGTGCACATATATATATATATA [GTGCAC_site9761] next?
*A* 10.9

*Q* And for ATAGAACTATATTGCACACATAATATATATATATAT [CACACA_site3189] ?
*A* 10.5

*Q* Would you kindly repeat that for AATTTTCCATAGATTGTGCACAAATTTTTATTTTGT ?
*A* 10.9

*Q* Next up: TTTTTTATTTTGTGCACACACATAAAAATATAAATA [CACACA_site6497]
*A* 11

* * *

Measured gcPBM binding intensity (ln) values are reported for all entries that follow.
Test system: PfAP2-I AP2 domain 3 (GST-tagged)
Assay: gcPBM binding intensity (ln(normalized median fluorescence intensity)); higher = stronger DNA binding
Whole data set: some 25,000 sequences, median “ln(normalized median fluorescence intensity)” near 7.9, cut for the highest 2% near 11. The sample holds the highest values, similar sequences and a random draw of the others, so the mix is not that of the screen.
In your answer, state the number alone without any accompanying words.

{"seq.text": "ATTACAATATATACGTGTACATATTACCACCGCTAC [XGTACX_site2308]", "target.or.test.system": "PfAP2-I AP2 domain 3 (GST-tagged)", "gcPBM binding intensity (ln)": 8.46}

*Q* Please report the recorded gcPBM binding intensity (ln) for TAATATAATCTGAGTGCACACAAATAAATAAACATA [CACACA_site8032] .
*A* 10.5

*Q* Thanks! And ATTCAATATTTATACACACACACTTTTAATAATTAA [CACACA_site7725] ?
*A* 8.05

*Q* Entry to check: AATAAATACTAAATGGTGCAAAATTTTTTAACACTG
*A* 10.8

*Q* Next up: TTTGTATTAAAAAAAAAAAAAAAAAAAATGAATAAA [TGCATGCA_negctrl_site292]
*A* 7.34

*Q* # repeat for ATTATTATTAATCTTGTGCACATATATTTTAATTAG
*A* 10.6

*Q* Check TTAAAATGAAGAAGTGCACACATATATATATTTATA [CACACA_site8063] too.
*A* 9.67

Where do these numbers come from? They come from the supplement of paper PMC11417369.
